testedSystem: UniProt:P07858
assayMethodText: Inhibition of human recombinant cathepsin-B using Z-Arg-Arg-AMC as substrate preincubated for 15 mins measured after 1 hr by QFRET assay
measurementKind: IC50 (nM)

COc1ccc(N2CCN(C(=O)[C@@H]3CCCC[C@H]3C(=O)NC3(C#N)CC3)[C@H](C)C2)nc1OC | 1690
COc1cc(N2CCN(C(=O)[C@@H]3CCCC[C@H]3C(=O)NC3(C#N)CC3)[C@H](C)C2)ccc1C1CC1 | 1140
Cc1ccc(N2CCN(C(=O)[C@@H]3CCCC[C@H]3C(=O)NCC#N)CC2)cc1 | 572

====

Attribute: microsomal CLint at 2 h
assayMethodText: Metabolic stability of the compound in rat liver microsomes assessed as compound turnover after 120 mins
measurementKind: microsomal CLint at 2 h

CS(=O)(=O)c1ccc(N2CCN(C(=O)[C@@H]3CCCC[C@H]3C(=O)NC3(C#N)CC3)CC2)cc1 | < 2.2 µL/min/mg
C[C@@H]1CN(c2ccc(S(C)(=O)=O)cc2)C[C@H](C)N1C(=O)[C@@H]1CCCC[C@H]1C(=O)NC1(C#N)CC1 | < 2 µL/min/mg
CS(=O)(=O)c1ccc(N2CCN(C(=O)[C@@H]3CCCC[C@H]3C(=O)NCC#N)CC2)cc1 | < 5.3 µL/min/mg
C[C@@H]1CN(c2ccccc2)CCN1C(=O)[C@@H]1CCCC[C@H]1C(=O)NC1(C#N)CC1 | > 347 µL/min/mg
